# tested_system: T1, LAG-3-hFc protein (human LAG-3 extracellular region with hFc tag) (human, UniProt P18627 23-450)
# T1 construct: also called hLAG-3-hFc; LAG-3 protein; not shown: human IgG Fc fragment (hFc) of the pCpC vector
# T1 sequence: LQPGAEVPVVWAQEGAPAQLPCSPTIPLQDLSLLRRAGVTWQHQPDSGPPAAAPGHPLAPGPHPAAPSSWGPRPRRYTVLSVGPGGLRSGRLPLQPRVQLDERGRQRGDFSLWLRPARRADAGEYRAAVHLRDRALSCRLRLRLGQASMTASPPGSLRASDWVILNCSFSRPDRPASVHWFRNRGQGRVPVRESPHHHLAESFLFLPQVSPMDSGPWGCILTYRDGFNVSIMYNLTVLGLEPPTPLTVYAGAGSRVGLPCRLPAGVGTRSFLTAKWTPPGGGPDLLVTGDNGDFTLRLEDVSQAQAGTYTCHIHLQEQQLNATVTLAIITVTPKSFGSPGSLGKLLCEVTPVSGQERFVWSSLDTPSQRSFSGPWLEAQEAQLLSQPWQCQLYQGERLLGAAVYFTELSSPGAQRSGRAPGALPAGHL
# protocol_notes: FACS, inhibition of LAG-3-hFc binding to MHC II on Raji cells, antibody 0.000 nM

| binder | Inhibition rate (%) |
| --- | --- |
| 409B11E12 mouse-human chimeric antibody (antibody, V domains shown, also called mAb104-409B11E12) VH: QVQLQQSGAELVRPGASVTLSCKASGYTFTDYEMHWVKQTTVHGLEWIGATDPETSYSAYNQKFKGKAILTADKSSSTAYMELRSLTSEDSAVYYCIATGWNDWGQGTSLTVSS VL: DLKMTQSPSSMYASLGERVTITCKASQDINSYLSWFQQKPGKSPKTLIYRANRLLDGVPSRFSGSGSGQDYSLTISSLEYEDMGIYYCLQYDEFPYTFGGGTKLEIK | -11.8 |
| 556F6B8 mouse-human chimeric antibody (antibody, V domains shown, also called mAb123-556F6B8; 556F8B8) VH: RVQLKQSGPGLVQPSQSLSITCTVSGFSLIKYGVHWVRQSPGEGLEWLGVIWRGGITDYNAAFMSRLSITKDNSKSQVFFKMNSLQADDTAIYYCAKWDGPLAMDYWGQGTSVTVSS VL: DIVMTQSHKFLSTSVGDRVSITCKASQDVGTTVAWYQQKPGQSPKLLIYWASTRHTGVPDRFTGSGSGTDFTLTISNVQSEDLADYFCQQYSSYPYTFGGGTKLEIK | 12.9 |

These data points were gathered from patent US20210155689A1.
